assay: yeast display, Sf9 membrane polyspecificity reagent, FACS + sequencing; frameworks hold sequencing errors

# seq.string, polyreactivity (PSR sort gate)
data = [
    ("QVQLVESPGGLDQAGGSLRLSGAASGSTLYDNAMGWYRQAPGKERELVAAISRSGGRTYYADSVKGRFTISRDNAKNTVYLHMNSLIPEDTAVYYCNAVVNGPGNYVTYDSWGQGTQVTVSS", "high polyreactivity"),
    ("QVQLQESVGGLVQASGSIFHVPNMGWYRQAPGNERELVAGLAGGGNTNYADIVKGRFTISRDNAKNTVYLQRNSLDTAVYYCAVVGFGRGTHIYWGQGTQVTVSS", "high polyreactivity"),
    ("QVQLVESGGGLVQAGGSLRLSCAASGSIFTHNAMGWSRQAPGKERELVATISYGGGRTYYADSVKGRFTISRDNAKNTVYLQMNSLKPEDTAVYYCNALRGGPFRWHGYYYWGQGTQVTVSS", "low polyreactivity"),
    ("QVQLVESGGGLVQAGGSLRLSCAASGRTFKYNTMGWYRQAPGKEREFVAAINWSGGSTYSAASVKGRFTISRDNAKNTVYLQMNSLKPEDTAVYYCAARRVYLGEYDYWGQGTQVTVSS", "high polyreactivity"),
    ("QVQLVESGGGLVHAGGSLRLSCAASGSIFFIYAMGGYRPAPGTERELVARISQGGASPYYADSVKGRFTISRDNAKTTVYLQMNSLKPEDTVVYYCAAGYTNTRLRPKGYGYYYWGQGTQVTVSW", "high polyreactivity"),
    ("QVQLVESGGALVQAGGSLRLSCAASGSTFVYYAMGWYRQAPGKERELVAAISRSGTSTYYADSVKGRFTISRDNAKNTVYLQMNSLKPEDTAVYYCNARKKQGYDYWGQGTQVTVSS", "high polyreactivity"),
    ("QVQLVESGGGLVQAGGSLRLSCAASGSIFDPYAMGWYRQAPGKERELVAAINGGSGSTFYADSVKGRFTISRDNAKNTVYLQMNSLKPEDTAVYYCAAKIWRYSPSYYPEPRGDYWGQGTQVTVSS", "low polyreactivity"),
    ("QVQLVESGGGLVQAGGSLSLSCAASGLTFAKNAMGWYRQAPGKERELVAVITSSGGSTYYADSVKGRFTISRDNAKNTVYLQMNSLKPEDTAVYYCNVAYYDRSRSTGYEYWGQGTQVTVSS", "high polyreactivity"),
    ("QVQLVESGGGLVQAGGSLRLSCAASGSIFSQNAMGWYRQAPGKERELVASITYSGGSTYYADSVKGRFTISRDNAKNTVYFQMNSLKPEDTEVYYCAADVRYSSRFYYWGQGTQVTVSS", "high polyreactivity"),
    ("QDQLVESRGGLVQAGVSLRLSCAASGIIFAENAMGWYRQAPGKERELVAAITWNGGRTYYADSVKGRFTISRDNAKNTVYLQMNSLKPEDTAVYYCNAVTVYYRIYEYWGQGTQVNVSS", "high polyreactivity"),
]

###

assay: yeast display, Sf9 membrane polyspecificity reagent, FACS + sequencing; frameworks hold sequencing errors
value.type: polyreactivity (PSR sort gate)

# seq.string, value.type, result
rows = [
    ("QVQLVESGGGLVQAGGSLRLSCAASGGIFSWYDMGWYREAPGKERELVAAISWSGGSTYYADSVKGRFTISRDNAKHTVYLQMNSLKPEDTAVYYCAAYTADDYDYWGQGTQVTVSS", "polyreactivity (PSR sort gate)", "high polyreactivity"),
    ("QVQLVESGGGLVQAGGSLRLSCAASGRIYAMGWYRQAPGKERELVAAISRGGSTYYADSVKGRFTISRDNAKNTVYLQMNSLKPEDTAVYYCARRYASTGYDYWGQGTQVTVSS", "polyreactivity (PSR sort gate)", "high polyreactivity"),
    ("QVQLVESAGGLVQAGGSLRLSCAASGSIFLSNAMGWYRQAPGTERALVADIDWTGGDTYYADSVKGRFTISRDNAKNTVYLQMNSLKPEDTAFYYCAADYGYRNLLTEYGYWGQGTQVTVSS", "polyreactivity (PSR sort gate)", "low polyreactivity"),
    ("QVHLVESGGGLVQAGVSLRLSCAASGRTVVNAMGWYRQAPGKERELVAAISSNGGRTYYADSVKGRFTISRDNAKHSVYLQMNSLKPEDTAVYYCAAYNTHRYDYWGQGTQVTVSS", "polyreactivity (PSR sort gate)", "high polyreactivity"),
    ("QVQLVESGGGLVQAGGSLRLSCAASGSNFTNYAMGWYRPAPGKERELVARITSSGSRTYYADSVKGRFTISRDNAKNTVYLQMNSLKPEDTAVYYCNAETYYLRYGRGYRRFDYWGQGTQVTVSS", "polyreactivity (PSR sort gate)", "high polyreactivity"),
    ("QVQLVESGGGLVQAGGSLRLSCAASGSTFFKYGMGWYRQAPGKERELVATISSRGGNTSYADSVKGRFTISRDNAKNTVYLLMNSLKPEVTAVYLCNAKLVYVGDTTTWGQGTQVTVSS", "polyreactivity (PSR sort gate)", "low polyreactivity"),
    ("QVQLVESGGGLVQAGGSLRLSCAASGRIFYLYAMGWYRQAPGKERELVAAITGGGSTSYADSVKGRFTISRDNAKNTVYLQMNSLKPEDTAVYYCATDRLTYTKYGYWGQGTQVTVSS", "polyreactivity (PSR sort gate)", "low polyreactivity"),
    ("QVQLQESGGGLVQAGGSLRLSCAASGTISDSGLMGWYRQAPGKERELVAGISSGGITNYADSVKGRFTISRDNAKNTVYLQMNSLKPDDTAVYWGQGTQVTVSS", "polyreactivity (PSR sort gate)", "low polyreactivity"),
    ("QDQLVESGGGLVQAGGSLRLSCAASGFTFAENAMGWYRQATGKEGELVAAISGSGGSTYYADSVKGRFTISRDNAKNTVYLQMNSLKPEDTAVYYCAADKPRPQYTDDDYWGQGTQVTVSS", "polyreactivity (PSR sort gate)", "high polyreactivity"),
]

FYI, the data here is from the nanobody polyreactivity screen of Harvey et al. (2022).
